Molecular target: T1, mouse Claudin-6 (CLDN6) (mouse, UniProt Q9Z262 1-219)
T1 construct: whole, on cells; GFP fusion on engineered HEK293T cells; also called Mouse CLDN6; murine CLDN6
T1 sequence (looked up): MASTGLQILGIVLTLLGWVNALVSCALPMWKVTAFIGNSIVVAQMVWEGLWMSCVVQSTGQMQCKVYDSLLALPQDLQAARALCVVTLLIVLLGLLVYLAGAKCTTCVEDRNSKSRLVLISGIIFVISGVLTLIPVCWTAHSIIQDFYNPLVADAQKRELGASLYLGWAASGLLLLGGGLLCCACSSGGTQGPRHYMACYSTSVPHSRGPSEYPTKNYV
Assay: FACS titration of labelled mAb on HEK293T mouse CLDN6-mGFP cells
Experimental: CLDN6 antibodies were tested from 0.32 nM to 1000 nM (serial dilution 1:5, 6 points) in a 50 μl volume with 150,000 cells system. […] For each type of cell tested and for each mAb, cells were detached from the surface of the culture flasks by EDTA (instead of trypsin) in order to protect the cell surface proteins. The detached cells were then incubated with Alexa Fluor®-labeled CLDN6 mAbs for 30 min in the dark on ice at a pre-determined concentration. […]
This section presents binders with their documented pEC50 values.
The quantity pEC50 is defined as the negative base-10 logarithm of the molar concentration.

Illustrative cases are given below, each with its answer.
AB11 (antibody, V domains shown, full-length IgG (ExpiCHO)) VH: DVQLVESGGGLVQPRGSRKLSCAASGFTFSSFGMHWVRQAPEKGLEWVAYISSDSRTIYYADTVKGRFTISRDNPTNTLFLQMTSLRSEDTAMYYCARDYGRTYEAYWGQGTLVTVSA VL: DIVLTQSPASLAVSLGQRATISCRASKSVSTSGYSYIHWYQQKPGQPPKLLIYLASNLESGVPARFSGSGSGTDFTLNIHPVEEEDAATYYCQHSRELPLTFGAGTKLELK	5.62
AB3 (antibody, V domains shown, full-length IgG (ExpiCHO)) VH: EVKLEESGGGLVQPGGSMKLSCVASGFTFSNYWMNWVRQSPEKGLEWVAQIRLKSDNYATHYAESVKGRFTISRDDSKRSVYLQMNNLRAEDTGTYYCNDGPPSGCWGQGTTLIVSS VL: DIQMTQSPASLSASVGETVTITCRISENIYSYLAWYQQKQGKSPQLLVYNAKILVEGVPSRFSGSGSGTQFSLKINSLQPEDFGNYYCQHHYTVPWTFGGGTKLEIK	5.60
AB5 (antibody, V domains shown, full-length IgG (ExpiCHO)) VH: EVQLQQSGPELVKPGASVKMSCKASGYIFTHYIMHWVKQKPGQGLEWIGCINPYNDGTKYNEKFKGKATLTSDKSSSTAYMELSSLTSEDSAVYYCARYYGYPYYSMDYWGQGTSVTVSS VL: DVLMTQTPLSLPVSLGDQPSISCRSSQSIVHSNGNTYLDWYLQKPGQSPKLLIYKVSNRFSGVPDRFSGSGSGTDFTLKISRVEAEDLGVYYCFQGSHVPFTFGSGTRLEIK	7.96

Now for another entry.
Exam item: Quick one: pEC50 for AB1 (antibody, V domains shown, full-length IgG (ExpiCHO)) VH: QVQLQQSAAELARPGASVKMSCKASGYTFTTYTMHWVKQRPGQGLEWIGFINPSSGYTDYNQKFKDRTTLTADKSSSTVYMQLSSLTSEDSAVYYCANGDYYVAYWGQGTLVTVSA VL: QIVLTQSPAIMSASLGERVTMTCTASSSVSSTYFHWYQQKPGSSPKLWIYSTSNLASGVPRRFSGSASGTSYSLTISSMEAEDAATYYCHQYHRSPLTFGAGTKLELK ?
Marked response: 7.14
